Data origin, for the record: PubChem BioAssay (NCI)

- System: SK-MEL-5 melanoma
- MEASUREMENT DESCRIPTION: NCI tumour cell line growth inhibition, 48 h
Each entry below carries its reported TGI.
Please reply with the bare figure in µM and do not write the unit itself.

Worked examples, 2 molecules total:
C/C(N=NC(=S)N1CC2CCC(CC2)C1)=C1\C=CC=CN1O; 41.1
CNCCOC(=O)/C=C1\CC[C@H]2[C@@H]([C@@H](O)C(=O)[C@@H]3[C@]2(C)CC[C@H](O)[C@]3(C)C(=O)OC)[C@H]1C; 0.734

Next up:
Briefly, TGI measured for C=CCCCCC1CCC2CCC(CCCCC=C)N12 (stereo unspecified) : 26.9
